These data points were gathered from patent US20030229053A1.

// reported IC50 per item
Molecular target: recombinant HCV NS5B (Hepatitis C virus genotype 1b)
Sequence (P26663 2420-3010 limits assumed): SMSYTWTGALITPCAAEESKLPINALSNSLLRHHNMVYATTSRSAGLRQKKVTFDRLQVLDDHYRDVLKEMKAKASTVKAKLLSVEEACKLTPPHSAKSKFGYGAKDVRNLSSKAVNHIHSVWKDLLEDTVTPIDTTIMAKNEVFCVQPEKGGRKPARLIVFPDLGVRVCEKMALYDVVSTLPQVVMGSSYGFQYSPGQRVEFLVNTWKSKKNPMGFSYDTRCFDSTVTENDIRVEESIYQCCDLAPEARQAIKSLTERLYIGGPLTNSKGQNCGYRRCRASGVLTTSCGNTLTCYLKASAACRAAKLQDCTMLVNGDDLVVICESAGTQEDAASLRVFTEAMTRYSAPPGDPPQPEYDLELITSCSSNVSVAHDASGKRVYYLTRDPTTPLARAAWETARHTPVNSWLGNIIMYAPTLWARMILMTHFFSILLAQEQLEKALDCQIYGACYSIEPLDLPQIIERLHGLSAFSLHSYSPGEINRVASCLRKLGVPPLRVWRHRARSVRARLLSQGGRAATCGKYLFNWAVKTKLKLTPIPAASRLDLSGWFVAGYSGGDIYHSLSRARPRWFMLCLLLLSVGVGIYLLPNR
Assay: biochemical
Settings: flashplate, polyrA/biotinylated-oligo dT, 100 nM NS5B, 2 hrs at room temperature; read-out: RNA pol Assay 2 IC50 (μm)
VALUE KIND: IC50

compound=O=C(O)[C@H](Cc1ccccc1)N(Cc1sccc1-c1cccnc1)C(=O)c1ccc(Cl)cc1Cl endpoint_result="< 5 µM"
compound="O=C(O)C(Cc1ccccc1)N(Cc1cccc(Oc2ccc(Cl)cc2)c1)C(=O)c1ccc(Cl)cc1Cl (stereo not drawn)" endpoint_result="5 to 20 µM"
compound=O=C(O)[C@H](Cc1ccccc1)N(Cc1cnc(-c2cccc(C(F)(F)F)c2)s1)C(=O)c1ccc(Cl)cc1Cl endpoint_result="< 5 µM"
compound=O=C(O)[C@H](Cc1ccccc1)N(Cc1sccc1-c1ccncc1)C(=O)c1ccc(Cl)cc1Cl endpoint_result="5 to 20 µM"
compound=COc1cccc(CN(C(=O)c2ccc(Cl)cc2Cl)[C@@H](Cc2ccccc2)C(=O)O)c1 endpoint_result="< 5 µM"
compound=N#Cc1cccc(-c2ccc(CN(C(=O)c3ccc(Cl)cc3Cl)[C@@H](Cc3ccccc3)C(=O)O)o2)c1 endpoint_result="< 5 µM"
compound=CS(=O)(=O)c1cccc(CN(C(=O)c2ccc(Cl)cc2Cl)[C@@H](Cc2ccccc2)C(=O)O)c1 endpoint_result="5 to 20 µM"
compound=O=C(O)[C@H](Cc1ccccc1)N(Cc1ccccc1[N+](=O)[O-])C(=O)c1ccc(Cl)cc1Cl endpoint_result="5 to 20 µM"
compound=O=C(O)[C@H](Cc1ccccc1)N(Cc1cccnc1)C(=O)c1ccc(Cl)cc1Cl endpoint_result="5 to 20 µM"
